Data origin, for the record: patent US20070179161A1

# study-system: CDK-2 enzyme, complexed with cyclin A (Homo sapiens, UniProt P24941)
# protocol: CDK2 enzyme inhibition assay (33P phosphorylation of peptide […], filter plate)
# test-context: CDK-2/cyclin A, 0.1 mM ATP, 40 min at 30° C.
pIC50: −log10 of the molar value.
assay-readout: pIC50

# count of solved cases: 5
| compound | data-value |
| --- | --- |
| O=S(=O)(Nc1nccs1)c1ccc(Nc2cc(Cl)nc3ccnn23)cc1 | 5.88 |
| CCCN(CCC)[C@H]1CC[C@H](Nc2cc(Nc3ccc(S(=O)(=O)N(C)C)cc3)n3ncc(C(C)C)c3n2)CC1 | 6.81 |
| CCc1cnn2c(Nc3ccc(S(C)(=O)=O)cc3)cc(Cl)nc12 | 6.97 |
| CNS(=O)(=O)c1ccc(Nc2cc(N[C@H]3CC[C@H](N)CC3)nc3c(C(C)C)cnn23)cc1 [Example 67] | 7.52 |
| Clc1cccc(Nc2cc(Cl)nc3c(Br)cnn23)c1 | 6.97 |

a = NC(=O)c1ccc(Nc2cc(N[C@H]3CC[C@@H](N)CC3)nc3c(Br)cnn23)cc1
b = CC(C)c1cnn2c(Nc3ccc(S(=O)(=O)N(C)C)cc3)cc(N[C@H]3CC[C@H](NC(N)=O)CC3)nc12
-- ask Problem: Given the entries a and b , determine which has the lower reported pIC50. Indicate which entry you chose by stating its label.
-- reply b
(b: 6.85, a: 7.59)

---

# study-system: PDK1 enzyme (Homo sapiens, UniProt O15530)
# Sequence (O15530 1-556): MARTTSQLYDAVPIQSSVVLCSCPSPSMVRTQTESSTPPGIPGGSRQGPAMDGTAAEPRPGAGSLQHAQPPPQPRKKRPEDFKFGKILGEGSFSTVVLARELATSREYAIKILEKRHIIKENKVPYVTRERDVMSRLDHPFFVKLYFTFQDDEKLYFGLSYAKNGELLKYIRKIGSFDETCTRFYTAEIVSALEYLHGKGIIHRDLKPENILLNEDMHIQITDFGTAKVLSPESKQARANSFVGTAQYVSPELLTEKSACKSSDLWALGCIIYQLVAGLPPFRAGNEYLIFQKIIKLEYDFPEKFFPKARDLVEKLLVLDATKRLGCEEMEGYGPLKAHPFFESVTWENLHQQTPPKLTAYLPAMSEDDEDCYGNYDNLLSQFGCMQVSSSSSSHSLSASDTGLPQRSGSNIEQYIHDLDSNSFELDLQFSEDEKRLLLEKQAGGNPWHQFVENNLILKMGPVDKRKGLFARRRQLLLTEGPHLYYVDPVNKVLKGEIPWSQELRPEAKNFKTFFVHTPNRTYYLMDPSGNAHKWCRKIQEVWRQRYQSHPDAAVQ
# protocol: PDK1 kinase inhibition assay (33P phosphorylation of synthetic peptide, filter plate)
# Assay type: biochemical
# test-context: 0.01 mM ATP, 60 min at 30° C.; read-out: PDK1 IC50
assay-readout: IC50 (µM)

| given-smiles | study-system | measure-unit | data-value |
| --- | --- | --- | --- |
| CC(C)c1cnn2c(Nc3ccc(S(=O)(=O)N(C)C)cc3)cc(NC3CCN(C)CC3)nc12 | PDK1 enzyme (Homo sapiens, UniProt O15530) | µM | 31.6 |

P = CC(C)c1cnn2c(Nc3ccc(S(=O)(=O)N(C)C)cc3)cc(N[C@H]3CC[C@H](O)CC3)nc12
Q = O=S(=O)(c1ccccc1)c1ccc(Nc2cc(Cl)nc3c(Br)cnn23)cc1
-- ask Among P and Q , whose measured IC50 is the smaller figure? Give the label of your selection.
-- reply P
(P: 3.81 µM, Q: 16 µM)

---

# study-system: PDK1 enzyme (Homo sapiens, UniProt O15530)
# protocol: PDK1 kinase inhibition assay (33P phosphorylation of synthetic peptide, filter plate)
# Type: biochemical
# test-context: PDK1 IC50(μM), 0.01 mM ATP, 60 min at 30° C.
assay-readout: IC50

-- ask Can you share its IC50? I mean this compound: CS(=O)(=O)c1ccc(Nc2cc(Cl)nc3ccnn23)cc1
-- reply > 200 µM

---

# study-system: GST-Chk1 enzyme (Homo sapiens)
# Sequence (O14757 1-476): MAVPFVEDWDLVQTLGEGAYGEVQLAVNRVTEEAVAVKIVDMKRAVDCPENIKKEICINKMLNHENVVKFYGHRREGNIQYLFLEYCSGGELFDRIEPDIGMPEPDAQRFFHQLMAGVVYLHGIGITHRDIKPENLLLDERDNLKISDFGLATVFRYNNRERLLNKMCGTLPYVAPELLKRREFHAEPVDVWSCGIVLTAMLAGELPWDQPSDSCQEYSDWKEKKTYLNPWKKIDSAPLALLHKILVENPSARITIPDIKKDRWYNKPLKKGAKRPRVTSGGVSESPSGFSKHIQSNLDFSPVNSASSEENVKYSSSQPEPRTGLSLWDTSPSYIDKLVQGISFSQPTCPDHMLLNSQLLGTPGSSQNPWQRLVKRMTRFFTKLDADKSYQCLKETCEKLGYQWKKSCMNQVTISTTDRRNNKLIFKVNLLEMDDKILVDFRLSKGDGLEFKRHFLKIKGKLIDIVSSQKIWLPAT
# protocol: Chk1 kinase inhibition assay (33P phosphorylation of Chktide, filter plate)
# Type: biochemical
# test-context: 0.01 mM ATP, 11 nM GST-Chk1, 40 minutes at 30° C.; read-out: Chk1 IC50
assay-readout: IC50 (µM)

I = CN(C)CCNS(=O)(=O)c1ccc(Nc2cc(Cl)nc3c(Br)cnn23)cc1
II = CN(C)S(=O)(=O)c1ccc(Nc2cc(N[C@H]3CC[C@H](N)CC3)nc3c(Br)cnn23)cc1
-- ask Parameter check: reported IC50 is higher for which label, I or II ? Answer by quoting the chosen item's label.
-- reply I

---

# study-system: GST-Chk1 enzyme (Homo sapiens, UniProt O14757)
# Sequence (O14757 1-476): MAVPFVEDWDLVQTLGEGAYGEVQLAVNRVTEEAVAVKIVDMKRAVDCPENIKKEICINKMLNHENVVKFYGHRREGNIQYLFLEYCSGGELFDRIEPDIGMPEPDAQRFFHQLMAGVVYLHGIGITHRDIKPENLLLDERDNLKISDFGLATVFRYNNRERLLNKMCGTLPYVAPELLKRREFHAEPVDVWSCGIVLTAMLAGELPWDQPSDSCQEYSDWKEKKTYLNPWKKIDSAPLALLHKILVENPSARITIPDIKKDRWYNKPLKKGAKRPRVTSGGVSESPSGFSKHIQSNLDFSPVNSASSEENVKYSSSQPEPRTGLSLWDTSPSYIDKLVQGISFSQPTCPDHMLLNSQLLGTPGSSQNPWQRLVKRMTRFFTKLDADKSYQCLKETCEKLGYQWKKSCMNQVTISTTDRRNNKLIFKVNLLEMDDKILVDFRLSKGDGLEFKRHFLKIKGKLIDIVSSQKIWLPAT
# protocol: Chk1 kinase inhibition assay (33P phosphorylation of Chktide, filter plate)
# Assay type: biochemical
# test-context: 0.01 mM ATP, 11 nM GST-Chk1, 40 minutes at 30° C.; read-out: Chk1 IC50
assay-readout: IC50 (µM)

Use the examples below as a reference point.
| compound | study-system | assay-readout | data-value |
| --- | --- | --- | --- |
| CC(C)c1cnn2c(Nc3ccc(S(=O)(=O)N(C)C)cc3)cc(N[C@H]3CC[C@H](N)CC3)nc12 | GST-Chk1 enzyme (Homo sapiens, UniProt O14757) | IC50 | 5.51 |
| Brc1cccc(-c2cc(NCc3ccncc3)n3nccc3n2)c1 | GST-Chk1 enzyme (Homo sapiens, UniProt O14757) | IC50 | 29.6 |
| CC(C)c1cnn2c(Nc3ccc(S(C)(=O)=O)cc3)cc(N(C)CCN(C)C)nc12 | GST-Chk1 enzyme (Homo sapiens, UniProt O14757) | IC50 | 51.7 |
| CC(C)c1cnn2c(Nc3ccc(S(=O)(=O)N(C)C)cc3)cc(C(=O)NCCN)nc12 | GST-Chk1 enzyme (Homo sapiens, UniProt O14757) | IC50 | 36.8 |

I = N[C@H]1CC[C@H](Nc2cc(Nc3ccc(Sc4cccs4)cc3)n3ncc(Cl)c3n2)CC1
II = CC(C)c1cnn2c(Nc3ccc(S(C)(=O)=O)nc3)cc(N[C@H]3CC[C@H](N)CC3)nc12
-- ask Between item I and item II , which reported IC50 is smaller? # answer = label of selected item
-- reply I
(I: 1.47 µM, II: 19.6 µM)

1 = CC(C)c1cnn2c(Nc3ccc(S(=O)(=O)N(C)CCN(C)C)cc3)cc(N[C@H]3CC[C@H](N)CC3)nc12
2 = CN(C)S(=O)(=O)c1ccc(Nc2cc(N[C@H]3CC[C@H](N)CC3)nc3c(-c4ccsc4)cnn23)cc1
3 = CC(C)c1cnn2c(Nc3ccc(S(=O)(=O)N(C)C)cc3)cc(OC3CCCN(C)C3)nc12 (stereo not shown)
-- ask Reorder the items by IC50, least to greatest. Use the labels to give the ranking in the order requested.
-- reply 2, 1, 3
(2: 0.63 µM, 1: 0.953 µM, 3: 6.28 µM)
